- Method Notes: Metabolic stability assay, CD-1 mouse microsomes
- Assay type: in vitro ADME
- Run Conditions: both sexes, CD-1, mouse, microsomes
Endpoint Name: half-life at 10 µM (min)

Here are 5 compounds together with their reported answers.
| Compound | Data Value |
| --- | --- |
| CN1CC(=O)N2C[C@H](NC(=O)Cc3ccc4ccccc4c3)C[C@H]2COc2ccc(cc2)C(=O)N(C)[C@H](C(=O)N2CCCC2)CCC1=O [Ex. 264] | 42 |
| CN1CCC[C@H](N)C(=O)N2C[C@@H](OCc3ccc(-c4cncnc4)cc3)C[C@H]2COc2cccc(c2)C1=O [Ex. 577] | 27 |
| CN1CCC[C@H](NS(=O)(=O)c2ccc(-c3ccccc3)cc2)C(=O)N2C[C@@H](NC(=O)Cc3ccc4ccccc4c3)C[C@H]2COc2cccc(c2)C1=O [Ex. 527] | 20 |
| CN1CC(=O)N2C[C@@H](NC(=O)Cc3c[nH]c4ccccc34)C[C@H]2COc2ccc(F)cc2C(=O)N(C)[C@H](C(=O)NCCc2c[nH]c3ccccc23)CCC1=O [Ex. 12] | 35 |
| CN1CCC[C@H](NC(=O)OCc2ccccc2)C(=O)N[C@@H]2C[C@@H](COc3ccc(F)cc3C1=O)N(C(=O)OC(C)(C)C)C2 [Ex. 403] | 57 |

1: CN1C[C@H](NC(=O)OCc2ccccc2)C(=O)N(C)CC(=O)N2C[C@@H](NC(=O)Cc3c[nH]c4ccccc34)C[C@H]2COc2cccc(c2)C1=O [Ex. 200]
2: CCCCCCCCCC(=O)N[C@H]1CCCN(C)C(=O)c2cccc(c2)OC[C@@H]2C[C@H](NC(=O)Nc3cccc(N(C)C)c3)CN2C1=O [Ex. 511]
Lowest half-life at 10 µM? choose 1 or 2 Returns: label corresponding to the selected item.
2
(2: 14 min, 1: 30 min)
